Values from patent US20070249620A1

experimental_readout: melting point

Tell me the measured melting point of COc1ccc(C)cc1NC(=O)Nc1ccc(N2CCN(C(=O)NCc3ccccc3)CC2)cc1 [Example 50] , please. 224 °C

Tell me the measured melting point of Cc1ccc(F)cc1NC(=O)Nc1ccc(N2CCN(C(=O)OC(C)(C)C)CC2)cc1 [Example 36] , please. 206 to 208 °C

Tell me the measured melting point of COc1ccc(C)cc1NC(=O)Nc1ccc(N2CCN(C(=O)Nc3c(F)cccc3C(F)(F)F)CC2)nc1 [Example 139] , please. 221 to 222 °C

Tell me the measured melting point of COc1ccc(C)cc1NC(=O)Nc1ccc(N2CCCN(C(=O)Nc3c(C)cccc3Cl)CC2)cc1 [Example 200] , please. > 240 °C (dec.)

Tell me the measured melting point of COc1ccccc1NC(=O)Nc1ccc(N2CCN(C(=O)Nc3cc(OCCO)ccc3Cl)CC2)cc1 [Example 232] , please. 179 to 180 °C

====

Field: melting point. Provide a value for each of the compounds that follow.

Tell me the measured melting point of CSc1ccccc1NC(=O)Nc1ccc(N2CCN(C(=O)Nc3ccc(OCCO)cc3C(F)(F)F)CC2)cc1 , please. 115 to 116 °C

Tell me the measured melting point of O=C(Nc1ccc2c(c1)CCN(C(=O)Nc1ccc(OCCO)cc1Cl)C2)Nc1ccccc1F , please. 183 to 186 °C

Tell me the measured melting point of CCOc1ccc(F)cc1NC(=O)Nc1ccc(N2CCN(C(=O)Nc3ccccc3C)CC2)cc1 , please. 186 to 187 °C

Tell me the measured melting point of COc1ccc(C)cc1NC(=O)Nc1ccc(N2CCN(C(=O)C3CCCCC3)CC2)cc1 , please. 222 °C

Tell me the measured melting point of CCC(C)c1ccccc1NC(=O)Nc1ccc(N2CCN(C(=O)OC(C)(C)C)CC2)cc1 (centres unmarked) , please. 177 °C

Tell me the measured melting point of Cc1cccc(Cl)c1NC(=O)N1CCN(c2ccc(NC(=O)Nc3ccccc3Cl)cc2)CC1 , please. > 260 °C (dec.)

Tell me the measured melting point of COc1ccc(C)cc1NC(=O)Nc1ccc(N2CCN(C(=O)Nc3ccc(C)cc3C)CC2)cc1 , please. 196 to 199 °C

Tell me the measured melting point of COc1ccc(C)cc1NC(=O)Nc1ccc(N2CCN(C(=O)C3CCCCC3C)CC2)cc1 (centres unmarked) , please. 208 to 209 °C

Tell me the measured melting point of COc1ccc(F)cc1NC(=O)Nc1ccc(N2CCN(C(=O)Nc3ccc(OCC(O)CO)cc3C(F)(F)F)CC2)nc1 (centres unmarked) , please. 195 °C

Tell me the measured melting point of COc1ccc(F)cc1NC(=O)Nc1ccc(N2CCN(C(=O)Nc3c(F)cccc3C(F)(F)F)CC2)cc1 , please. 181 to 183 °C

Tell me the measured melting point of CCC(C)c1ccc(NC(=O)Nc2ccc(N3CCN(C(=O)OC(C)(C)C)CC3)cc2)cc1 (centres unmarked) , please. 201 to 202 °C

Tell me the measured melting point of COc1ccc(C)cc1NC(=O)Nc1ccc(C2=CCN(C(=O)Nc3ccc(OCC(O)CO)cc3C(F)(F)F)CC2)cc1 (centres unmarked) , please. 135 to 137 °C

Tell me the measured melting point of COc1ccccc1NC(=O)Nc1ccc(N2CCN(C(=O)Nc3ncccc3C)CC2)cc1 , please. 207 to 209 °C

Tell me the measured melting point of CC(C)(C)OC(=O)N1CCN(c2ccc(NC(=O)Nc3ccc(C(C)(C)C)cc3)cc2)CC1 , please. 140 to 141 °C

====

experimental_readout: melting point

Tell me the measured melting point of CC(C)(C)OC(=O)N1CCN(c2ccc(NC(=O)Nc3cc(C(F)(F)F)ccc3Cl)cc2)CC1 , please. 221 to 223 °C

Tell me the measured melting point of COc1ccc(C)cc1NC(=O)Nc1ccc(N2CCN(C(=O)Nc3c(C)cccc3OC)CC2)cc1 , please. 200 to 203 °C

Tell me the measured melting point of O=C(Nc1ccc(N2CCN(C(=O)Nc3ccc(C(=O)O)cc3Cl)CC2)cc1)Nc1ccccc1F , please. 250 to 253 °C
